The measurements presented in this section are drawn from ChEMBL document CHEMBL1667821.

system: Galectin-4 (Homo sapiens) (UniProt P56470)
Sequence (P56470 whole entry): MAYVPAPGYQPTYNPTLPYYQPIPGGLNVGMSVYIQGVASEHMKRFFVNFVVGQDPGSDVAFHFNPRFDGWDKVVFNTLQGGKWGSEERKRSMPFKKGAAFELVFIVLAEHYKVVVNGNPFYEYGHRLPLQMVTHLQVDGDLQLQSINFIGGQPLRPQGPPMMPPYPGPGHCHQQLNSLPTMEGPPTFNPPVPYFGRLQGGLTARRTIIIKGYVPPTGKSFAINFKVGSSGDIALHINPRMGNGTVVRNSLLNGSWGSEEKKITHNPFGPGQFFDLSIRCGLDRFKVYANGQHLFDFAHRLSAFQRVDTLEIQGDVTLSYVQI
assayText: Binding affinity to human galectin-4 by surface plasmon resonance method
The source made the active and inactive calls. The calls are words filed in the database; no cut-off is given here.
measuredProperty: Activity

Field: example entries. Status: answers known.
OC[C@H]1O[C@@H](OCCCCCCCCCCCCS)[C@H](O)[C@@H](O)[C@H]1O :: Active
OC[C@H]1O[C@@H](O[C@H]2C=C[C@@H](OCCCCCCCCCCCCS)O[C@@H]2CO)[C@H](O)[C@@H](O)[C@H]1O :: Active
OC[C@H]1O[C@@H](O[C@H]2[C@H](O)C[C@@H](OCCCCCCCCCCCCS)O[C@@H]2CO)[C@H](O)[C@@H](O)[C@H]1O :: 345 a.u.
CC(=O)N[C@H]1[C@@H](OCCCCCCCCCCCCS)O[C@H](CO)[C@@H](O[C@@H]2O[C@H](CO)[C@H](O)[C@H](O)[C@H]2O)[C@@H]1O :: 462 a.u.

Now look at this one.
# lookup: OC[C@H]1OC(O[C@H]2[C@H](O)[C@@H](O)[C@H](OCCCCCCCCCCCCS)O[C@@H]2CO)[C@H](O)[C@@H](O)[C@H]1O (stereo not given in full) on Galectin-4 (Homo sapiens) (UniProt P56470), Activity = 457 a.u.
